These data points were gathered from patent US8431525B2.

assay: Fluorescence spectra at a final concentration of 30 μM (Example 2); type: physicochemical; conditions: methanol, 30 μM, excited at 330 nm
Quantity Name: λmax (MeOH)/nm (nm)

CC(=O)Oc1ccc(-c2cnc(NC(=S)Cc3ccccc3)c(Cc3ccccc3)n2)cc1 [c-31] | 422.0
O=[N+]([O-])c1ccc(S(=O)(=O)Nc2ncc(-c3ccc(O)cc3)nc2Cc2ccccc2)cc1 [c-36] | 433.0
O=C(Cc1ccc(O)cc1)Nc1ncc(-c2ccc(O)cc2)nc1Cc1ccccc1 [c-4, reference compound] | 428.0
Oc1ccc(-c2cnc(NC(=S)Cc3ccccc3)c(Cc3ccccc3)n2)cc1 [c-14] | 428.0

====

test: Fluorescence spectrum and fluorescence quantum yield of CTMD analogs at 750 nM (Example 1); format: physicochemical; details: fluorescence emission, 67 mM phosphate buffer pH 7.4, 750 nM, 25° C., excited at 330 nm
Quantity Name: λmax (PB)/nm (nm)

COc1ccc(-c2cnc(NC(C)=O)c(Cc3ccccc3)n2)cc1 | 450.5
CC(=O)Oc1ccc(-c2cnc(NC(=O)Cc3ccccc3)c(Cc3ccccc3)n2)cc1 | 391
CS(=O)(=O)Nc1ncc(-c2ccc(O)cc2)nc1Cc1ccccc1 | 437
CC(=O)Oc1ccc(-c2cnc(N(S(=O)(=O)c3ccc([N+](=O)[O-])cc3)S(=O)(=O)c3ccc([N+](=O)[O-])cc3)c(Cc3ccccc3)n2)cc1 | 415
O=C(Cc1ccc(O)cc1)Nc1ncc(-c2ccc(O)cc2)nc1Cc1ccccc1 [c-4, reference compound] | 451
COc1ccc(-c2cnc(NC(=O)Cc3ccccc3)c(Cc3ccccc3)n2)cc1 | 450
CC(=O)Oc1ccc(CC(=O)Nc2ncc(-c3ccc(OC(C)=O)cc3)nc2Cc2ccccc2)cc1 | 386.5
O=S(=O)(Cc1ccccc1)Nc1ncc(-c2ccccc2)nc1Cc1ccccc1 | 419.5
CC(=O)Oc1ccc(-c2cnc(N(S(=O)(=O)Cc3ccccc3)S(=O)(=O)Cc3ccccc3)c(Cc3ccccc3)n2)cc1 | 420
CC(=O)Oc1ccc(-c2cnc(NS(=O)(=O)Cc3ccccc3)c(Cc3ccccc3)n2)cc1 | 420
O=C(Cc1ccccc1)Nc1ncc(-c2ccc(O)cc2)nc1Cc1ccccc1 | 399
CC(=O)Oc1ccc(-c2cnc(N(S(C)(=O)=O)S(C)(=O)=O)c(Cc3ccccc3)n2)cc1 | 419
COc1ccc(-c2cnc(NC(=S)Cc3ccccc3)c(Cc3ccccc3)n2)cc1 | 445
CC(=O)Nc1ncc(-c2ccc(O)cc2)nc1Cc1ccccc1 | 446.5
COc1ccc(-c2cnc(NS(=O)(=O)Cc3ccccc3)c(Cc3ccccc3)n2)cc1 | 429
Cc1ccc(S(=O)(=O)Nc2ncc(-c3ccc(O)cc3)nc2Cc2ccccc2)cc1 | 435

====

In this section we review reported melting point values for a set of compounds.

A selection of reference data follows.
COc1ccc(-c2cnc(NS(=O)(=O)Cc3ccccc3)c(Cc3ccccc3)n2)cc1 | 213 to 215 °C
CC(=O)Oc1ccc(-c2cnc(N(S(=O)(=O)Cc3ccccc3)S(=O)(=O)Cc3ccccc3)c(Cc3ccccc3)n2)cc1 | 84 to 86.5 °C
CC(=O)Nc1ncc(-c2ccc(OC(C)=O)cc2)nc1Cc1ccccc1 | 215.5 to 217 °C (dec.)
COc1ccc(-c2cnc(NC(=O)Cc3ccccc3)c(Cc3ccccc3)n2)cc1 | 197.5 to 202 °C
O=S(=O)(Cc1ccccc1)Nc1ncc(-c2ccc(O)cc2)nc1Cc1ccccc1 | 144 to 147 °C (dec.)

What value of measured melting point is listed for CC(=O)Oc1ccc(-c2cnc(N(S(C)(=O)=O)S(C)(=O)=O)c(Cc3ccccc3)n2)cc1 ?
165.5 to 167 °C

Okay, and Oc1ccc(-c2cnc(NC(=S)Cc3ccccc3)c(Cc3ccccc3)n2)cc1 ?
195 to 198 °C

Query CC(=O)Oc1ccc(CC(=O)Nc2ncc(-c3ccc(OC(C)=O)cc3)nc2Cc2ccccc2)cc1 next
225 to 227 °C
